Quick reference: TGI (total growth inhibition) of the listed items.
Tested on: MDA-MB-435
Test: NCI DTP 60 cell line five-concentration test, melanoma panel
Type: cell-based
Conditions: MDA-MB-435 melanoma cell line

[
  {
    "Compound": "C[C@]12CCc3nc(NCCc4ccccc4)sc3C1=CC[C@@H]1[C@@H]2CC[C@]2(C)C(=O)CC[C@@H]12 [Compound 1]",
    "TGI (total growth inhibition)": ">100 µM"
  },
  {
    "Compound": "C[C@]12CCc3nc(Nc4cccc(O)c4)sc3C1=CC[C@@H]1[C@@H]2CC[C@]2(C)C(=O)CC[C@@H]12 [Compound 4]",
    "TGI (total growth inhibition)": ">100 µM"
  },
  {
    "Compound": "C[C@]12CCc3nc(-c4cccc(F)c4)sc3C1=CC[C@@H]1[C@@H]2CC[C@]2(C)C(=O)CC[C@@H]12 [Compound 8]",
    "TGI (total growth inhibition)": ">100 µM"
  },
  {
    "Compound": "C[C@]12CCc3nc(Nc4cccc(F)c4)sc3C1=CC[C@@H]1[C@@H]2CC[C@]2(C)C(=O)CC[C@@H]12 [Compound 5]",
    "TGI (total growth inhibition)": "13.1 µM"
  },
  {
    "Compound": "C[C@]12CCc3nc(Nc4ccccc4)sc3C1=CC[C@@H]1[C@@H]2CC[C@]2(C)C(=O)CC[C@@H]12 [Compound 2]",
    "TGI (total growth inhibition)": ">100 µM"
  },
  {
    "Compound": "C[C@]12CCc3nc(Nc4ccc(OC(F)(F)F)cc4)sc3C1=CC[C@@H]1[C@@H]2CC[C@]2(C)C(=O)CC[C@@H]12 [Compound 3]",
    "TGI (total growth inhibition)": "10.1 µM"
  },
  {
    "Compound": "Cc1ccc(Nc2nc3c(s2)C2=CC[C@@H]4[C@H](CC[C@]5(C)C(=O)CC[C@@H]45)[C@@]2(C)CC3)c(C)c1 [Compound 7]",
    "TGI (total growth inhibition)": ">100 µM"
  }
]

###

Test system: SK-MEL-28
Assay: NCI DTP 60 cell line five-concentration test, melanoma panel
Assay type: cell-based
Conditions: SK-MEL-28 melanoma cell line
Method: In our effort to develop new methodologies to synthesize bioactive compounds [11–14], we have synthesized a number of thiazole and thiazolo-androstenone derivatives. We submitted 50 of the synthesized thiazole–androstenone derivatives to the National Cancer Institute (NCI) Development Therapeutics Program (DTP) to test against 60 cancer cell lines (https://dtp.cancer.gov/). These compounds were tested for cytotoxicity at a single dose of 10 µM. […]

[
  {
    "Test smiles": "Cc1ccc(Nc2nc3c(s2)C2=CC[C@@H]4[C@H](CC[C@]5(C)C(=O)CC[C@@H]45)[C@@]2(C)CC3)c(C)c1",
    "Assay system": "SK-MEL-28",
    "Measurement units": "µM",
    "Comparator": "=",
    "TGI (total growth inhibition)": 6.08
  },
  {
    "Test smiles": "C[C@]12CCc3nc(Nc4cccc(F)c4)sc3C1=CC[C@@H]1[C@@H]2CC[C@]2(C)C(=O)CC[C@@H]12",
    "Assay system": "SK-MEL-28",
    "Measurement units": "µM",
    "Comparator": "=",
    "TGI (total growth inhibition)": 4.27
  },
  {
    "Test smiles": "C[C@]12CCc3nc(Nc4ccccc4)sc3C1=CC[C@@H]1[C@@H]2CC[C@]2(C)C(=O)CC[C@@H]12",
    "Assay system": "SK-MEL-28",
    "Measurement units": "µM",
    "Comparator": ">",
    "TGI (total growth inhibition)": 100
  }
]
